Target: NMDA receptor (Rattus norvegicus, UniProt P35439+Q00960)
Construct: Membranes were prepared by homogenization of the whole brain minus cerebellum and medulla oblongata
Sequence (Q00960 27-1482, other chains not shown): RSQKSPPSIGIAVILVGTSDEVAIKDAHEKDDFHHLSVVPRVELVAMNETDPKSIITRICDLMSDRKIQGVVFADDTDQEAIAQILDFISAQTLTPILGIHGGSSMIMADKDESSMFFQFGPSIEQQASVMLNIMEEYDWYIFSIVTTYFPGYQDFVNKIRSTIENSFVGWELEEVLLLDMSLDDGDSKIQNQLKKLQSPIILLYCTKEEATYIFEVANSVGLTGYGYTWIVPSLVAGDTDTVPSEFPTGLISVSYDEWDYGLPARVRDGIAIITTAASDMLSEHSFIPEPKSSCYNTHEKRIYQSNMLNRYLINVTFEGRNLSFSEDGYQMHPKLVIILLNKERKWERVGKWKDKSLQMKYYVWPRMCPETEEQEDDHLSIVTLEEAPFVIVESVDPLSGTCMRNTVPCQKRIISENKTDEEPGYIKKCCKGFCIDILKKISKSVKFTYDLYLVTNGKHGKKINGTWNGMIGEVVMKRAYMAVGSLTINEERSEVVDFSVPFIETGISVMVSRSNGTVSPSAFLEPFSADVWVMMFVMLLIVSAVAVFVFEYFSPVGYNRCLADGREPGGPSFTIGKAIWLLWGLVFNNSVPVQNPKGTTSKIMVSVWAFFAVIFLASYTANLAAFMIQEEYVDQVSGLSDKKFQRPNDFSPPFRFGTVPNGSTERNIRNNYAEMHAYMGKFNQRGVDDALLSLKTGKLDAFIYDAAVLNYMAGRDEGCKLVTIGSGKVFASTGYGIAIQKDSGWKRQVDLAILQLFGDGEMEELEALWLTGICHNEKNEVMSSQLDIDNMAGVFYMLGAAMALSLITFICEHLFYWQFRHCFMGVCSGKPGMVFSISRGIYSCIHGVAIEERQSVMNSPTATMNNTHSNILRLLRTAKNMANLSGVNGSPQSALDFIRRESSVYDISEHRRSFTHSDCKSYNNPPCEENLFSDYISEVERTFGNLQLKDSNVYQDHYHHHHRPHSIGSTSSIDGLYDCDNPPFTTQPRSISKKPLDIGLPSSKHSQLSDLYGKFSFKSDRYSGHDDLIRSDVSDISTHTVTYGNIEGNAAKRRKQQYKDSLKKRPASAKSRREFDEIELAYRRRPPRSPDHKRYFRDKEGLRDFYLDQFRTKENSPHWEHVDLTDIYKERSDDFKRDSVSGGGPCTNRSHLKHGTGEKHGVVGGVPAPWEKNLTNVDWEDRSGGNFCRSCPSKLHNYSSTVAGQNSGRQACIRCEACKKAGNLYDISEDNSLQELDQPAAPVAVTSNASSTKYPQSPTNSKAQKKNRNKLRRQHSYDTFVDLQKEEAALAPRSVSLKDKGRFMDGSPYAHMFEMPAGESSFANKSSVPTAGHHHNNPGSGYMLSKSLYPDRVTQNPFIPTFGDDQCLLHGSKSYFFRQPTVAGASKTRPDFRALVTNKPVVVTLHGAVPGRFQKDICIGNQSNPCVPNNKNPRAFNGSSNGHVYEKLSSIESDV
Experiment: [3H] Compound A (R-(R*,S*)]-α-(4-Hydroxy-phenyl)-β-methyl-4-(phenyl-methyl)-1-piperidine propanol) binding, displacement on rat brain membranes (NMDA receptor subtype)
Settings: displacement of 5 nM [3H] Compound A, rat whole brain minus cerebellum and medulla oblongata membranes, pH 7.4, 2 hours at 4° C.
Where a name gives a salt, the structure may show the parent alone.
Each entry below lists one item and its recorded IC50 value.
Response body: numeric value in nM, unit text excluded.

Example cases with answers are listed next.
{"columns": ["Compound", "Unit text", "Endpoint result"],
 "data": [
  ["Clc1ccc(-c2nc(-c3cccc(CN4CCCC4)c3)n[nH]2)cc1 [Example 49, hydrochloride]", "nM", 87],
  ["COc1ccc(-c2nc(-c3cccc(CN)c3)n[nH]2)cc1 [Example 73, hydrochloride]", "nM", 8.3],
  ["c1cc(CN2CCCC2)cc(-c2n[nH]c(-c3ccc4ccccc4c3)n2)c1 [Example 25, hydrochloride]", "nM", 1000],
  ["COc1ccc(-c2nc(-c3cccc(CN4CCCC4)c3)n[nH]2)cc1 [Example 51, hydrochloride]", "nM", 58]
]}

Now for another entry.
IC50 for CCN(CC)Cc1cccc(-c2n[nH]c(-c3ccc(OC)cc3)n2)c1 [Example 52, hydrochloride] is 330

Measured values drawn from patent US6265426A for this set.
